test system: KB; test: Cytotoxic activity was determined in vitro in KB cell line culture at pH 6.8; format: functional, cell-based, Homo sapiens
value.kind: IC50 (µM)
The answer is to be given in µM; state only the numeric part.

Problem: Request: IC50, test system KB, entry `CISPLATIN`
Result: 55

----------
system: SK-MEL-25; test: Cytotoxic activity was determined in vitro in SK-MEL-25 cell line culture at pH 6.8; type: functional, cell-based, Homo sapiens
value.kind: IC50 (µM)
The response must be a number in µM with no trailing unit.

Problem: Find the recorded IC50 belonging to `CISPLATIN` and report it.
Result: 78

----------
system: Calu-6; experiment: Cytotoxic activity was determined in vitro in Calu-6 cell line culture at pH 6.8; format: functional, cell-based, Homo sapiens
value.kind: pIC50
On this scale, pIC50 is minus log10 of a concentration expressed in M (mol/L).

Problem: Enter reported pIC50 observed with Calu-6 for `CISPLATIN`
Result: 4.80

----------
tested on: Calu-6; experiment: Cytotoxic activity was determined in vitro in Calu-6 cell line culture at pH 7.4; format: functional, cell-based, Homo sapiens
value.kind: IC50 (µM)
Field format: number, assumed µM, no unit text.

Problem: Name the reported IC50 value associated with the sequence `CISPLATIN`
Result: 25
